# System: LXRa homodimer (NR concentration 270 nM)
# method: PBM binding z-score (relative to random genomic background probes); higher = stronger binding; sequences stand for … in GC…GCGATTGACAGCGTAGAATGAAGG
Quick rule for you: PBM binding z-score at -0.4 or higher means y, lower means n.

# residueString, assayTarget, classLabel
records = [
    ("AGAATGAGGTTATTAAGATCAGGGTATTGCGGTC", "LXRa homodimer (NR concentration 270 nM)", "y"),
    ("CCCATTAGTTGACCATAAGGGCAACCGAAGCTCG", "LXRa homodimer (NR concentration 270 nM)", "y"),
    ("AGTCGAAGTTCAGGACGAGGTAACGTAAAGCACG", "LXRa homodimer (NR concentration 270 nM)", "y"),
    ("TCTAGCAGGCCAGAGGGTCATTCAAGAGGTACGG", "LXRa homodimer (NR concentration 270 nM)", "y"),
    ("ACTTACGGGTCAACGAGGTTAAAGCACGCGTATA", "LXRa homodimer (NR concentration 270 nM)", "y"),
    ("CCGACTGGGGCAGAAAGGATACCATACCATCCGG", "LXRa homodimer (NR concentration 270 nM)", "n"),
]
